Assay: Acute toxicity in rats
Settings: rat, in vivo, po, female rats, 14 days observation
Reported Property: LD50 at 336 h

-- ask Would you mind telling me what LD50 at 336 h value was observed for CCCCn1c(C)c(C(=O)NC2CCN(CCc3ccccc3)CC2)c2cc(O)ccc21 ?
-- reply > 9000 mg/kg

###

The entries below come with measured IC50 values attached.
Molecular target: 5-lipoxygenase (Cavia porcellus, UniProt A0A286X958)
Construct: Guinea pigs were anesthetized with ethyl ether, and the peripheral blood was collected in heparinized syringes; endogenous in cells; host or cells: guinea pig peripheral blood leukocytes (dextran sedimentation, erythrocytes lysed)
Sequence (A0A286X958 1-674): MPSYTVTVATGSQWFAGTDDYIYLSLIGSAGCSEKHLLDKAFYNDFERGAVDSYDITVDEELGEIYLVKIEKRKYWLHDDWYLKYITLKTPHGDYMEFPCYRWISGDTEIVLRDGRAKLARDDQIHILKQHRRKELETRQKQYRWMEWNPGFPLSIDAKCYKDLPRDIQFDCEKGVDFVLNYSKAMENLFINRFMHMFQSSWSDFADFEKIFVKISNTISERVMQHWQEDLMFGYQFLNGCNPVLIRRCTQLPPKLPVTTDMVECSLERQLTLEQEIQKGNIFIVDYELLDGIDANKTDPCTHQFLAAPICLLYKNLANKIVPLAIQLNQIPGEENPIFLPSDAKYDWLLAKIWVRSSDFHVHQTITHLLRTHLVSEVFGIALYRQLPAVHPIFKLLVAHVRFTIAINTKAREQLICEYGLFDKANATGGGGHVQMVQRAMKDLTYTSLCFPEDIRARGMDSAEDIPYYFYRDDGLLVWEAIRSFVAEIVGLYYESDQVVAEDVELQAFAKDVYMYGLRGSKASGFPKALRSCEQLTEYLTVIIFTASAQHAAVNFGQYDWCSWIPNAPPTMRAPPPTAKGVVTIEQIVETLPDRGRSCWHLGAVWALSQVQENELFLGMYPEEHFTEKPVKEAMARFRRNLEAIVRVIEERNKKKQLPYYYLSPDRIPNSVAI
Experiment: 5-lipoxygenase inhibition (arachidonic acid induced chemiluminescence of peripheral leukocytes in guinea pigs)
Type: cell-based, guinea pig
Conditions: arachidonic acid induced chemiluminescence, guinea pig leukocytes; median inhibition concentration; read-out: 5-lipoxygenase inhibiting activity IC50
Protocol: 1. Inhibitory activity on 5-lipoxygenase (Effect of test compounds on arachidonic acid induced chemiluminescence of peripheral leukocytes in guinea pigs) (1) Isolation of leukocytes and preparation of leukocyte suspension […] Chemiluminescence was measured by the method of Yoshimoto et al. which is described in Biochem. Biophys. […] The effects of test compounds were expressed as IC50 values (μM).
Structures can show the parent of a compound that is named as a salt.
State just the number; it will be interpreted in nM.

Cc1c(C(=O)NC2CCN(CCc3ccccc3)CC2)c2cc(O)ccc2n1-c1ccccc1 [Example 29, hydrochloride] | 1400

-- ask Could you share which IC50 value was measured for Cc1c(C(=O)NC2CCN(CCCc3ccccc3)CC2)c2cc(O)ccc2n1-c1ccccc1 [Example 26, hydrochloride monohydrate] ?
-- reply 2500

-- ask Report IC50 for Cc1c(C(=O)NC2CCN(CCc3ccccc3)CC2)c2cc(O)ccc2n1-c1ccc(Cl)cc1 [Example 24, hydrochloride] please.
-- reply 4200
